B1: library; a variant is named by its letters at N, in order (parent)
chain: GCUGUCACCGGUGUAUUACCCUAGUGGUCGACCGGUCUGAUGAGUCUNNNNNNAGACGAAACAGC

variants of: B1; experiment: normalized RNA/DNA level with ligand (relative to sTRSVctl = 100) (log10 (% of sTRSVctl)); ligand: hypoxanthine (xanthine aptamer); higher = less ribozyme self-cleavage, higher mRNA level; conditions: ligand concentration (+) RNA-Seq: 5 mM, HEK293T, reporter: mCherry (pCS4076), ligand present: yes
measured endpoint: normalized RNA/DNA level with ligand (log10)

>  <mutant code>
UCAUAC

>  <value observed>
1.98

$$$$
>  <mutant code>
GUGCGA

>  <value observed>
1.92

$$$$
>  <mutant code>
UUUCAU

>  <value observed>
1.92

$$$$
>  <mutant code>
CAUAUG

>  <value observed>
1.94

$$$$
>  <mutant code>
GGAACA

>  <value observed>
1.94

$$$$
>  <mutant code>
CUAAGC

>  <value observed>
1.94

$$$$
>  <mutant code>
CUCUGU

>  <value observed>
1.96

$$$$
>  <mutant code>
GAUAUG

>  <value observed>
1.85

$$$$
>  <mutant code>
UACAAC

>  <value observed>
1.97

$$$$
>  <mutant code>
UACCAC

>  <value observed>
1.88

$$$$
>  <mutant code>
UAAAAG

>  <value observed>
1.87

$$$$
>  <mutant code>
UGAAGU

>  <value observed>
1.87

$$$$
>  <mutant code>
AUCCGC

>  <value observed>
1.93

$$$$
>  <mutant code>
UAAGGG

>  <value observed>
1.88

$$$$
>  <mutant code>
GCAAUG

>  <value observed>
1.87

$$$$
>  <mutant code>
AACCCC

>  <value observed>
1.97

$$$$
>  <mutant code>
GUAACA

>  <value observed>
1.89

$$$$

All values here come from the supplement of paper PMC6757056.
